# run.description: qHTS assay for cell viability of HEK293 cells (AID 743288); further: on the % scale 0 is the no-effect control and ±100 the full control effect; nearly all actives have a fitted effect of over 50% in size
# reported.conditions: ATP luminescence (CellTiter-Glo), 18 h, active compounds read low
Inconclusive results are not listed.
assay.endpoint: max response (%)
Give bare numbers, in %.

Give max response for each of the items listed below.
1. [N-]=[N+]=[N-]
2. C=CC=O
3. Nc1ccc2ccccc2c1
4. C=CC#N
5. CC(C)CC(C)N (configuration not stated)
6. Clc1ccc(C(Cl)(Cl)Cl)cc1Cl

Solution:
1. 0.516
2. -14.3
3. 3.26
4. -18.6
5. 1.65
6. 4.98

Would you mind listing max response for each of the following molecules?
1. C=COC(C)=O
2. CN1CSC(=S)N(C)C1
3. O=C(Cl)OCc1ccccc1

Solution:
1: -3.61; 2: -15.3; 3: -3.33

Give max response for each of the items listed below.
1. [O-][Cl+2]([O-])O
2. Oc1cc(Cl)c(Cl)c(Cl)c1
3. BrC(Br)Br
4. Cc1cc(-c2cc(C)c(N)c(C)c2)cc(C)c1N

Solution:
[-5.12, -15.1, -3.11, 7.5]

For each of the molecules below, note its max response.
1. Nn1cnnc1
2. N#CCCCCC#N
3. CC(=O)CCC(C)=O
4. C=CCc1cc(OC)c2c(c1)OCO2
5. C=CCO
6. ClCCCCl

Solution:
1. -1.3
2. -18.9
3. -8.83
4. -6.53
5. 9.9
6. 2.44
